Tested on: Cell membrane
Assay: Induction of inner membrane permeabilization in Staphylococcus aureus ATCC 29213 at 20 ug/ml measured for 12 mins by propidium iodide staining based fluorescence microscopic analysis
Details: dose 20.0 µg/ml
Calls of active or inactive are those of the source. The calls are words filed in the database; no cut-off is given here.
Labels: label 1 = active, label 0 = inactive

CN[C@H](CC(C)C)C(=O)N[C@H]1C(=O)N[C@@H](CC(N)=O)C(=O)N[C@H]2C(=O)N[C@H]3C(=O)N[C@H](C(=O)N[C@H](C(=O)O)c4cc(O)cc(O)c4-c4cc3ccc4O)[C@H](O)c3ccc(c(Cl)c3)Oc3cc2cc(c3O[C@@H]2O[C@H](CO)[C@@H](O)[C@H](O)[C@H]2O[C@H]2C[C@](C)(N)[C@H](O)[C@H](C)O2)Oc2ccc(cc2Cl)[C@H]1O
label 0
C[C@@H](O)[C@H]1C(=O)N2C(C(=O)O)=C(S[C@@H]3CN[C@H](C(=O)N(C)C)C3)[C@H](C)[C@H]12
label 0
CC(=O)NC[C@H]1CN(c2ccc(N3CCOCC3)c(F)c2)C(=O)O1
label 0
CCCCCCCCCCCN(C[C@H]1CN(c2ccc(N3CCOCC3)c(F)c2)C(=O)O1)C(=O)[C@@H](N)CCCCN.Cl.Cl
label 1

###

Tested on: Klebsiella pneumoniae
Experiment: Antibacterial activity against carbapenem-resistant Klebsiella pneumoniae clinical isolate 1 assessed as reduction in bacterial growth incubated for 16 to 20 hrs by CLSI-based broth microdilution method
Type: functional
Settings: time 16-20 hrs
Here, each record is paired with measured MIC data.
Value Type: MIC (µg/mL)

CCCCCCCCCCCN(C[C@H]1CN(c2ccc(N3CCOCC3)c(F)c2)C(=O)O1)C(=O)[C@@H](N)CCCN=C(N)N.Cl.Cl.Cl
16
CCCCCCCCCCCN(C[C@H]1CN(c2ccc(N3CCOCC3)c(F)c2)C(=O)O1)C(=O)[C@@H](N)CCCCN.Cl.Cl
16
CCCCCCCCCCCC[N+](C)(C)CC(=O)NC[C@H]1CN(c2ccc(N3CCOCC3)c(F)c2)C(=O)O1.[Cl-]
32
CCCCCCCCCCCCCC[N+](C)(C)CC(=O)NC[C@H]1CN(c2ccc(N3CCOCC3)c(F)c2)C(=O)O1.[Cl-]
32

###

Below: a set of entries, each annotated with reported MIC.
Tested on: Staphylococcus aureus
Test: Antibacterial activity against methicillin-resistant Staphylococcus aureus clinical isolate 5 assessed as reduction in bacterial growth incubated for 16 to 20 hrs by CLSI-based broth microdilution method
Assay type: functional
Conditions: time 16-20 hrs
Value Type: MIC (µg/mL)

CCCCCCCCCCCC[N+](C)(C)CC(=O)NC[C@H]1CN(c2ccc(N3CCOCC3)c(F)c2)C(=O)O1.[Cl-]
4
CCCCCCCCCCCN(C[C@H]1CN(c2ccc(N3CCOCC3)c(F)c2)C(=O)O1)C(=O)[C@@H](N)CCCN=C(N)N.Cl.Cl.Cl
8
CCCCCCCCCCCN(C[C@H]1CN(c2ccc(N3CCOCC3)c(F)c2)C(=O)O1)C(=O)[C@@H](N)CCCCN.Cl.Cl
4
CCCCCCCCCCCCCC[N+](C)(C)CC(=O)NC[C@H]1CN(c2ccc(N3CCOCC3)c(F)c2)C(=O)O1.[Cl-]
4
C[C@@H](O)[C@H]1C(=O)N2C(C(=O)O)=C(S[C@@H]3CN[C@H](C(=O)N(C)C)C3)[C@H](C)[C@H]12 [MEROPENEM]
64

###

System: Escherichia coli
Assay: Antibacterial activity against Escherichia coli ATCC 25922 assessed as reduction in bacterial growth incubated 16 to 20 hrs by CLSI-based broth microdilution method
Assay type: functional
Details: time 16-20 hrs
Value Type: MIC (µg/mL)

CCCCCCCC[N+](C)(C)CC(=O)NC[C@H]1CN(c2ccc(N3CCOCC3)c(F)c2)C(=O)O1.[Cl-]
128
CCCCCCCCN(C[C@H]1CN(c2ccc(N3CCOCC3)c(F)c2)C(=O)O1)C(=O)[C@@H](N)CCCCN.Cl.Cl
128
CCCCCCCCCCCC[N+](C)(C)CC(=O)NC[C@H]1CN(c2ccc(N3CCOCC3)c(F)c2)C(=O)O1.[Cl-]
16
CCCCCCCCCCCN(C[C@H]1CN(c2ccc(N3CCOCC3)c(F)c2)C(=O)O1)C(=O)[C@@H](N)CCCCN.Cl.Cl
8
CCCCCCCCCCCCCC[N+](C)(C)CC(=O)NC[C@H]1CN(c2ccc(N3CCOCC3)c(F)c2)C(=O)O1.[Cl-]
16

###

Tested on: Enterobacteriaceae
Experiment: Antibacterial activity against NDM1 producing carbapenem-resistant Enterobacteriaceae clinical isolate 8 assessed as reduction in bacterial growth incubated for 16 to 20 hrs by CLSI-based broth microdilution method
Type: functional
Details: time 16-20 hrs
Value Type: MIC

CCCCCCCCCCCN(C[C@H]1CN(c2ccc(N3CCOCC3)c(F)c2)C(=O)O1)C(=O)[C@@H](N)CCCN=C(N)N.Cl.Cl.Cl
16 µg/mL
C[C@@H](O)[C@H]1C(=O)N2C(C(=O)O)=C(S[C@@H]3CN[C@H](C(=O)N(C)C)C3)[C@H](C)[C@H]12 [MEROPENEM]
> 64 µg/mL
CN[C@H](CC(C)C)C(=O)N[C@H]1C(=O)N[C@@H](CC(N)=O)C(=O)N[C@H]2C(=O)N[C@H]3C(=O)N[C@H](C(=O)N[C@H](C(=O)O)c4cc(O)cc(O)c4-c4cc3ccc4O)[C@H](O)c3ccc(c(Cl)c3)Oc3cc2cc(c3O[C@@H]2O[C@H](CO)[C@@H](O)[C@H](O)[C@H]2O[C@H]2C[C@](C)(N)[C@H](O)[C@H](C)O2)Oc2ccc(cc2Cl)[C@H]1O [VANCOMYCIN]
64 µg/mL
CCCCCCCCCCCCCC[N+](C)(C)CC(=O)NC[C@H]1CN(c2ccc(N3CCOCC3)c(F)c2)C(=O)O1.[Cl-]
16 µg/mL
CCCCCCCCCCCC[N+](C)(C)CC(=O)NC[C@H]1CN(c2ccc(N3CCOCC3)c(F)c2)C(=O)O1.[Cl-]
16 µg/mL
CC(=O)NC[C@H]1CN(c2ccc(N3CCOCC3)c(F)c2)C(=O)O1 [LINEZOLID]
> 64 µg/mL
CCCCCCCCCCCN(C[C@H]1CN(c2ccc(N3CCOCC3)c(F)c2)C(=O)O1)C(=O)[C@@H](N)CCCCN.Cl.Cl
16 µg/mL

###

Tested on: Cell membrane
Assay: Induction of cytoplasmic membrane depolarization in Escherichia coli ATCC 25922 at 20 ug/ml measured for 12 mins by DiSC35 dye-based fluorescence assay
Type: subcellular
Settings: dose 20.0 µg/ml
Calls of active or inactive are those of the source. The rule behind the calls is not given here.
Classes used: t = active, f = inactive

CC(=O)NC[C@H]1CN(c2ccc(N3CCOCC3)c(F)c2)C(=O)O1
f
CN[C@H](CC(C)C)C(=O)N[C@H]1C(=O)N[C@@H](CC(N)=O)C(=O)N[C@H]2C(=O)N[C@H]3C(=O)N[C@H](C(=O)N[C@H](C(=O)O)c4cc(O)cc(O)c4-c4cc3ccc4O)[C@H](O)c3ccc(c(Cl)c3)Oc3cc2cc(c3O[C@@H]2O[C@H](CO)[C@@H](O)[C@H](O)[C@H]2O[C@H]2C[C@](C)(N)[C@H](O)[C@H](C)O2)Oc2ccc(cc2Cl)[C@H]1O
f
CCCCCCCCCCCN(C[C@H]1CN(c2ccc(N3CCOCC3)c(F)c2)C(=O)O1)C(=O)[C@@H](N)CCCCN.Cl.Cl
t
C[C@@H](O)[C@H]1C(=O)N2C(C(=O)O)=C(S[C@@H]3CN[C@H](C(=O)N(C)C)C3)[C@H](C)[C@H]12
f

###

Readings of MIC for the listed molecules
Tested on: Enterococcus faecalis
Assay: Antibacterial activity against Enterococcus faecalis ATCC 29212 assessed as reduction in bacterial growth incubated 16 to 20 hrs by CLSI-based broth microdilution method
Format: functional
Conditions: time 16-20 hrs
Value Type: MIC (µg/mL)

CCCCCCCCN(C[C@H]1CN(c2ccc(N3CCOCC3)c(F)c2)C(=O)O1)C(=O)[C@@H](N)CCCN=C(N)N.Cl.Cl.Cl
32
CN[C@H](CC(C)C)C(=O)N[C@H]1C(=O)N[C@@H](CC(N)=O)C(=O)N[C@H]2C(=O)N[C@H]3C(=O)N[C@H](C(=O)N[C@H](C(=O)O)c4cc(O)cc(O)c4-c4cc3ccc4O)[C@H](O)c3ccc(c(Cl)c3)Oc3cc2cc(c3O[C@@H]2O[C@H](CO)[C@@H](O)[C@H](O)[C@H]2O[C@H]2C[C@](C)(N)[C@H](O)[C@H](C)O2)Oc2ccc(cc2Cl)[C@H]1O
2
CCCCCCCCCCCCCC[N+](C)(C)CC(=O)NC[C@H]1CN(c2ccc(N3CCOCC3)c(F)c2)C(=O)O1.[Cl-]
4
CCCCCCCCCN(C[C@H]1CN(c2ccc(N3CCOCC3)c(F)c2)C(=O)O1)C(=O)[C@@H](N)CCCCN.Cl.Cl
16
C[C@@H](O)[C@H]1C(=O)N2C(C(=O)O)=C(S[C@@H]3CN[C@H](C(=O)N(C)C)C3)[C@H](C)[C@H]12
4
CCCCCCCCCCCCCCCCCC[N+](C)(C)CC(=O)NC[C@H]1CN(c2ccc(N3CCOCC3)c(F)c2)C(=O)O1.[Cl-]
16
CCCCCCCCCCN(C[C@H]1CN(c2ccc(N3CCOCC3)c(F)c2)C(=O)O1)C(=O)[C@@H](N)CCCCN.Cl.Cl
8
CCCCCCCN(C[C@H]1CN(c2ccc(N3CCOCC3)c(F)c2)C(=O)O1)C(=O)[C@@H](N)CCCN=C(N)N.Cl.Cl.Cl
128
CCCCCCCC[N+](C)(C)CC(=O)NC[C@H]1CN(c2ccc(N3CCOCC3)c(F)c2)C(=O)O1.[Cl-]
64
CCCCCCCCCCCN(C[C@H]1CN(c2ccc(N3CCOCC3)c(F)c2)C(=O)O1)C(=O)[C@@H](N)CCCCN.Cl.Cl
4
CCCCCCCCC[N+](C)(C)CC(=O)NC[C@H]1CN(c2ccc(N3CCOCC3)c(F)c2)C(=O)O1.[Cl-]
16
CCCCCCCCCCCC[N+](C)(C)CC(=O)NC[C@H]1CN(c2ccc(N3CCOCC3)c(F)c2)C(=O)O1.[Cl-]
4
CCCCCCCCCCN(C[C@H]1CN(c2ccc(N3CCOCC3)c(F)c2)C(=O)O1)C(=O)[C@@H](N)CCCN=C(N)N.Cl.Cl.Cl
8

Data provenance: ChEMBL document CHEMBL4673214
